Tested on: differentiated THP1 macrophages (WT)
Details: Table S3; THP-1, 12 h
readoutType: SOD1 FC

>>> datavalue("Cc1cc2c(cc1C(CC(=O)O)c1ccc3ccc(OCC(=O)NC4CCCCCC4)cc3c1)OCO2 (stereo not drawn)")
"0,41 fold"
>>> datavalue("Cc1cc2c(cc1C(CC(=O)O)c1ccc3ccc(OCC(=O)NC4CCCCCC4)cc3c1)OCCO2 (stereo not drawn)")
"1,35 fold"
>>> datavalue("COC(=O)[C@]12CCC(C)(C)C[C@H]1[C@H]1C(=O)C=C3[C@@]4(C)C=C(C#N)C(=O)C(C)(C)[C@@H]4CC[C@@]3(C)[C@]1(C)CC2")
"2,71 fold"

---

Molecular target: human Keap1 Kelch (Homo sapiens)
Sequence (Q14145 321-609): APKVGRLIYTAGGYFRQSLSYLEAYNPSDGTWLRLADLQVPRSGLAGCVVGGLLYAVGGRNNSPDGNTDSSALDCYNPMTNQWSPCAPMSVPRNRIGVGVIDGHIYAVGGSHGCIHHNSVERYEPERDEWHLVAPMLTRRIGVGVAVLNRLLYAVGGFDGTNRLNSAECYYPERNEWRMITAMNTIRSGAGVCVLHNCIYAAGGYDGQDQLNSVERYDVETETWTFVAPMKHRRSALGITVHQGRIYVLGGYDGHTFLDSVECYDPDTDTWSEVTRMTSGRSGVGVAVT
Assay: Fluorescence polarization (FP) competition assay with Cy5-Nrf2 peptide probe
Details: Ki (FP), mean, ≥3 individual measurements
Documented Ki across a set of compounds
readoutType: Ki (µM)

>>> datavalue("O=C(O)CCc1ccc2ccc(OCC(=O)NN3CCOCC3)cc2c1")
270
>>> datavalue("O=C(O)CCc1ccc2ccc(OCC(=O)Nc3ccccc3)cc2c1")
10
>>> datavalue("Cc1cc(C)c(NC(=O)COc2ccc3ccc(CCC(=O)O)cc3c2)c(C)c1")
21
>>> datavalue("O=C(COc1cccc(N2CCC(C(=O)O)CC2)c1)NC1CCCCC1")
160
>>> datavalue("O=C(O)CCc1ccc2ccc(OCC(=O)NC3CCCCCC3)cc2c1")
6.6
>>> datavalue("O=C(O)CCc1ccc2ccc(OCC(=O)NC3CCCCC3)cc2c1")
16
>>> datavalue("O=C(O)CCc1ccc2ccc(OCC(=O)NC3CCOCC3)cc2c1")
38
>>> datavalue("Cc1cc(C)c(C)c(NC(=O)COc2ccc3ccc(CCC(=O)O)cc3c2)c1C")
200
>>> datavalue("O=C(O)CC(c1ccccc1)c1ccc2ccc(OCC(=O)NC3CCCCCC3)cc2c1 (stereo not shown)")
1.1
>>> datavalue("COc1ccc(NC(=O)COc2ccc3ccc(CCC(=O)O)cc3c2)cc1")
70

---

System: differentiated THP1 macrophages (WT)
Conditions: Table S3; THP-1, 12 h
Where a name gives a salt, the structure may show the parent alone.
Below: a set of entries, each annotated with reported GPX1 FC.
readoutType: GPX1 FC

>>> datavalue("COC(=O)[C@]12CCC(C)(C)C[C@H]1[C@H]1C(=O)C=C3[C@@]4(C)C=C(C#N)C(=O)C(C)(C)[C@@H]4CC[C@@]3(C)[C@]1(C)CC2 [CDDO-Me, bardoxolone methyl]")
"0,44 fold"
>>> datavalue("COC(=O)/C=C/C(=O)OC [DMF, dimethyl fumarate]")
"0,59 fold"
>>> datavalue("Cc1cc2c(cc1C(CC(=O)O)c1ccc3ccc(OCC(=O)NC4CCCCCC4)cc3c1)OCCO2 (stereo not drawn) [Compound 28]")
"0,62 fold"
>>> datavalue("Cc1cc2c(cc1C(CC(=O)O)c1ccc3ccc(OCC(=O)NC4CCCCCC4)cc3c1)OCO2 (stereo not drawn) [Compound 24]")
"0,60 fold"
>>> datavalue("COc1cc([C@@H](CC(=O)O)c2ccc(C)c(CN3C[C@@H](C)Oc4ccccc4S3(=O)=O)c2)cc2nnn(C)c12 [KI-696]")
"1,38 fold"
>>> datavalue("C[S+]([O-])CCCCN=C=S (stereo not drawn) [SFN, sulforaphane]")
"0,53 fold"
